# TEST_NAME: soluble on expression in E. coli; label from the status in PepcDB or PDB records
MEASURED_ENDPOINT: soluble on expression in E. coli

Need soluble on expression in E. coli, item MGGSHHHHHHGMASSSNVPADMINLRLILVSGKTKEFLFSPNDSASDIAKHVYDNWPMDWEEEQVSSPNILRLIYQGRFLHGNVTLGALKLPFGKTTVMHLVARETLPEPNSQGQRNREKTGESNCCVIL
not soluble

Need soluble on expression in E. coli, item MKSLRFQSVFDIIGPVMIGPSSSHTAGAVRIGKIVSSIFDDTPTEVEFQLFNSFAKTYRGHGTDLALVAGILGMDTDDPEIPNSLEIAHKRGIKIVWTIQKDSNAPHPNTTKITVKNAHKTISVTGISIGGGNIQVTELNGF
not soluble

Need soluble on expression in E. coli, item MGSDKIHHHHHHLYSFTIASDTIELVKSLHYSILVLNMEAEEMFSKKQDPFAVKLSEIAGHLQRTSQFFVDFKINGIADVKEFAHKVKDFETAGDDLMHQLIIDLNNAFITPIDREDLLALANSLDDVLDGFEECSAIFEIYNIVQADEHMIRFVDEIHIAVNELALSMDLLVARKLQPMREHVIKVKEQETICDNLRRKSIKALFATETDPIKIIQYKEIYESLESIADYCQDAANVIETIIMKNA
not soluble
